// reported pKd per item
- study system: T1, human CD3e/d (human, UniProt P07766 23-126; P04234 22-105)
- T1 construct: Bought soluble protein; also called hCD3e/d; human CD3/ed (Sino CT038-H2508H)
- T1 sequence (P07766 23-126, chain 1 of 2): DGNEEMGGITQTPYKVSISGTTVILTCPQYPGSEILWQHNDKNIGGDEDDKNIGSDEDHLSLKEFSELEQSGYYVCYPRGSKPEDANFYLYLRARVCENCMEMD
- T1 sequence (P04234 22-105, chain 2 of 2): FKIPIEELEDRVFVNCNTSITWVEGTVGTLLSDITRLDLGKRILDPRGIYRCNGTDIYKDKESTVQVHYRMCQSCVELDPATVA
- assay overview: SPR (Carterra LSA), mAb on chip
pKd: −log10 of the molar value.
observation type: pKd

>>> meas_value("mAb 179 (antibody, V domains shown, VH and VL only) VH: EVQLVESGGGLVQPGRSLRLSCAASGFTFDDYTMHWVRQTPGKGLEWVSDISWNSGSIGYADSVKGRFTISRDNAKNTLYLQMNSLRAEDTALYYCVKDSSGYGHYLYYYMDVWGKGTTVTVSS VL: DIQMTQSPSSLSASVGDRVTITCRASQSIRNYLNWYQQSPGRAPKLLIFSASSLQSGVPSRFSGSGSGTDFTLTISSLQPEDFVTYYCQQRYSTPITFGQGTRLEIK")
8.11
>>> meas_value("mAb 296 (antibody, V domains shown, VH and VL only) VH: EVQLLESGGGLVQPGGSLRLSCAASGFTFSSYAMSWVRQAPGKGLEWVSAISGSGGTTYYTDSVKGRFTISRDNSKNTLYLQMNSLRAEDTAVYYCAKKYSYYYYYMDVWGKGTTVTVSS VL: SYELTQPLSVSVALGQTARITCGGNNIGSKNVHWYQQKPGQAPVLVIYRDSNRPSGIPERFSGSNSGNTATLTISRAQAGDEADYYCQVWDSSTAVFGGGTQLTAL")
6.43
>>> meas_value("mAb 276 (antibody, V domains shown, VH and VL only) VH: EVQLVESGGGLVQPGGSLRLSCAASGIPFSTYSMNWVRQAPGKGLEWVSYISGSSRTIYYADSVKGRFTISRDNAKKLLFLQMNSLRDEDTAVYYCAREGDYYDSSGWAYWGQGTLVTVSS VL: DIQMTQSPSSLSASVGDRVTITCRASQNIYKYLNWYEQKPGRAPKLLIYTTSNLQSGVPSRFSGSGSGTAFTLIISSLQPEDFATYYCQQSYGSPYTFGQGTKLEIK")
7.82
